The entries below come with measured IC50 values attached.
Tested on: SUM149
Experiment: Cytotoxicity in vitro in the presence and absence of elastase (MTT assay)
Assay type: cell-based
Conditions: SUM149 cells, compound alone (no elastase), 72 h
endpoint: IC50

INSERT INTO results (compound, endpoint, reportedmeasurement) VALUES
  ('CCCNC(=O)Nc1cccc(S(=O)(=O)Nc2cccc([C@H](CC(=O)O)NC(=O)Nc3ccc(NC(=O)NCCN(C)CCN(C)CCN(C)CC(=O)NCCCC[C@H](NC(=O)CN(C)CCN(C)CCN(C)CCNC(=O)Nc4ccc(NC(=O)N[C@@H](CC(=O)O)c5cccc(NS(=O)(=O)c6cccc(NC(=O)NCCC)c6)c5)cc4)C(=O)NCCN(C)CCN(C)CCN(C)CC(=O)N[C@@H](CC(N)=O)C(=O)N4CCC[C@H]4C(=O)N[C@H](C(=O)O[C@]4(CC)C(=O)OCc5c4cc4n(c5=O)Cc5c-4nc4ccccc4c5CC)C(C)C)cc3)c2)c1 [Compound A8]', 'IC50', '1.1 to 10 nM'),
  ('CCCNC(=O)Nc1cccc(S(=O)(=O)Nc2cccc([C@@H](CC(=O)O)NC(=O)Nc3ccc(NC(=O)NCCCCN(C)CCN(C)CCN(C)CC(=O)N[C@@H](CCCCNC(=O)CN(C)CCN(C)CCN(C)CCNC(=O)Nc4ccc(NC(=O)N[C@H](CC(=O)O)c5cccc(NS(=O)(=O)c6cccc(NC(=O)NCCC)c6)c5)cc4)C(=O)NCCN(C)CCN(C)CCN(C)CC(=O)N[C@@H](CC(N)=O)C(=O)N4CCC[C@H]4C(=O)N[C@H](C(=O)O[C@]4(CC)C(=O)OCc5c4cc4n(c5=O)Cc5c-4nc4ccccc4c5CC)C(C)C)cc3)c2)c1 [Compound A7]', 'IC50', '1.1 to 10 nM'),
  ('CCCNC(=O)Nc1cccc(S(=O)(=O)Nc2cccc([C@@H](CC(=O)OCCCCN)NC(=O)Nc3ccc(NC(=O)NCCOCCOCCOCCC(=O)N[C@@H](CC(=O)OCCCCN)C(=O)N4CCC[C@H]4C(=O)N[C@H](C(=O)O[C@]4(CC)C(=O)OCc5c4cc4n(c5=O)Cc5c-4nc4ccccc4c5CC)C(C)C)cc3)c2)c1 [Compound C7]', 'IC50', '1.1 to 10 nM');

* * *

Tested on: SUM149
Test: Cytotoxicity in vitro in the presence and absence of elastase (MTT assay)
Assay type: cell-based
Conditions: SUM149 cells, with 10 nM elastase, 72 h
pIC50: −log10 of the molar value. Where a name gives a salt, the structure may show the parent alone.
Some compounds, each annotated with its measured pIC50.
endpoint: pIC50

INSERT INTO measurements (compound, experimentalsystem, reportedmeasurement) VALUES
  ('CCCNC(=O)Cc1cccc(S(=O)(=O)Nc2cccc([C@H](CC(=O)O)NC(=O)Nc3ccc(NC(=O)NCCOCCOCCOCCC(=O)N[C@@H](CCCCNC(=O)CCOCCOCCOCCNC(=O)Nc4ccc(NC(=O)N[C@@H](CC(=O)O)c5cccc(NS(=O)(=O)c6cccc(NC(=O)NCCC)c6)c5)cc4)C(=O)NCCN(C)CCN(C)CCN(C)CC(=O)N[C@@H](CC(N)=O)C(=O)N4CCC[C@H]4C(=O)N[C@H](C(=O)O[C@]4(CC)C(=O)OCc5c4cc4n(c5=O)Cc5c-4nc4ccccc4c5CC)C(C)C)cc3)c2)c1 [Compound A6]', 'SUM149', '10.00 to 11.00'),
  ('CCCNC(=O)Cc1cccc(S(=O)(=O)Nc2cccc([C@@H](CC(=O)O)NC(=O)Nc3ccc(NC(=O)NCCOCCOCCOCCC(=O)N[C@@H](CCCCNC(=O)CCOCCOCCOCCNC(=O)Nc4ccc(NC(=O)N[C@H](CC(=O)O)c5cccc(CS(=O)(=O)c6cccc(NC(=O)NCCC)c6)c5)cc4)C(=O)NCCN(C)CCN(C)CCN(C)CC(=O)N[C@@H](CC(N)=O)C(=O)N4CCC[C@H]4C(=O)N[C@H](C(=O)O[C@]4(CC)C(=O)OCc5c4cc4n(c5=O)Cc5c-4nc4ccccc4c5CC)C(C)C)cc3)c2)c1 [Compound A5]', 'SUM149', '> 11.00'),
  ('CCCNC(=O)Nc1cccc(S(=O)(=O)Nc2cccc([C@@H](CC(=O)O)NC(=O)Nc3ccc(NC(=O)N(C)CCN(C)CCN(C)CC(=O)N[C@@H](CC(N)=O)C(=O)N4CCC[C@H]4C(=O)N[C@H](C(=O)O[C@]4(CC)C(=O)OCc5c4cc4n(c5=O)Cc5c-4nc4ccccc4c5CC)C(C)C)cc3)c2)c1 [Compound B1]', 'SUM149', '10.00 to 11.00'),
  ('CCCNC(=O)Nc1cccc(S(=O)(=O)Nc2cccc([C@@H](CC(=O)O)N(C(=O)NC(N)=O)c3ccc(NCCCCOC(=O)C[C@H](NC(=O)CCOCCOCCOCCNc4ccc(N(C(=O)NC(N)=O)[C@H](CC(=O)O)c5cccc(NS(=O)(=O)c6cccc(NC(=O)NCCC)c6)c5)cc4)C(=O)N4CCC[C@H]4C(=O)N[C@H](C(=O)O[C@]4(CC)C(=O)OCc5c4cc4n(c5=O)Cc5c-4nc4ccccc4c5CC)C(C)C)cc3)c2)c1 [Compound C4]', 'SUM149', '10.00 to 11.00'),
  ('CCCNC(=O)Nc1cccc(S(=O)(=O)Nc2cccc([C@@H](CC(=O)O)NC(=O)Nc3ccc(NC(=O)NCCN(C)CCN(C)CCN(C)CC(=O)N[C@@H](CC(N)=O)C(=O)N4CCC[C@H]4C(=O)N[C@H](C(=O)O[C@]4(CC)C(=O)OCc5c4cc4n(c5=O)Cc5c-4nc4ccccc4c5CC)C(C)C)cc3)c2)c1.Cl.Cl.Cl [Compound B4b]', 'SUM149', '10.00 to 11.00'),
  ('CCCNC(=O)Nc1cccc(S(=O)(=O)Nc2cccc([C@@H](CC(=O)O)NC(=O)Nc3ccc(NC(=O)NCCOCCOCCOCCC(=O)N[C@@H](CC(=O)OCCCCN(C)C)C(=O)N4CCC[C@H]4C(=O)N[C@H](C(=O)O[C@]4(CC)C(=O)OCc5c4cc4n(c5=O)Cc5c-4nc4ccccc4c5CC)C(C)C)cc3)c2)c1 [Compound C6]', 'SUM149', '10.00 to 11.00'),
  ('CCCNC(=O)Nc1cccc(S(=O)(=O)Nc2cccc([C@@H](CC(=O)O)NC(=O)Nc3ccc(NC(=O)NCCOCCOCCOCCC(=O)N[C@@H](CC(=O)OCC[N+](C)(C)C)C(=O)N4CCC[C@H]4C(=O)N[C@H](C(=O)O[C@]4(CC)C(=O)OCc5c4cc4n(c5=O)Cc5c-4nc4ccccc4c5CC)C(C)C)cc3)c2)c1 [Compound C1, trifluoroacetate]', 'SUM149', '10.00 to 11.00'),
  ('CCCNC(=O)Nc1cccc(S(=O)(=O)Nc2cccc([C@@H](CC(=O)O)NC(=O)Nc3ccc(NC(=O)NCCN(C)CCN(C)CCN(C)CC(=O)N[C@@H](CC(N)=O)C(=O)N4CCC[C@H]4C(=O)N[C@H](C(=O)O[C@]4(CC)C(=O)OCc5c4cc4n(c5=O)Cc5c-4nc4ccccc4c5CC)C(C)C)cc3)c2)c1 [Compound B4]', 'SUM149', '> 11.00'),
  ('CCCNC(=O)Nc1cccc(S(=O)(=O)Nc2cccc([C@@H](CC(=O)OCCCCN)NC(=O)Nc3ccc(NC(=O)NCCOCCOCCOCCC(=O)N[C@@H](CC(=O)OCCCCN)C(=O)N4CCC[C@H]4C(=O)N[C@H](C(=O)O[C@]4(CC)C(=O)OCc5c4cc4n(c5=O)Cc5c-4nc4ccccc4c5CC)C(C)C)cc3)c2)c1 [Compound C7]', 'SUM149', '> 11.00'),
  ('CCCNC(=O)Nc1cccc(S(=O)(=O)Nc2cccc([C@H](CC(=O)O)NC(=O)Nc3ccc(NC(=O)NCCN(C)CCN(C)CCN(C)CC(=O)NCCN(C)CCN(C)CCN(C)CC(=O)N[C@@H](CC(N)=O)C(=O)N4CCC[C@H]4C(=O)N[C@H](C(=O)O[C@]4(CC)C(=O)OCc5c4cc4n(c5=O)Cc5c-4nc4ccccc4c5CC)C(C)C)cc3)c2)c1 [Compound D2]', 'SUM149', '9.00 to 10.00'),
  ('CCCNC(=O)Nc1cccc(S(=O)(=O)Nc2cccc([C@H](CC(=O)O)NC(=O)Nc3ccc(NC(=O)NCCN(C)CCN(C)CCN(C)CC(=O)NCCCC[C@H](NC(=O)CN(C)CCN(C)CCN(C)CCNC(=O)Nc4ccc(NC(=O)N[C@@H](CC(=O)O)c5cccc(NS(=O)(=O)c6cccc(NC(=O)NCCC)c6)c5)cc4)C(=O)NCCN(C)CCN(C)CCN(C)CC(=O)N[C@@H](CC(N)=O)C(=O)N4CCC[C@H]4C(=O)N[C@H](C(=O)O[C@]4(CC)C(=O)OCc5c4cc4n(c5=O)Cc5c-4nc4ccccc4c5CC)C(C)C)cc3)c2)c1 [Compound A8]', 'SUM149', '9.00 to 10.00');

The values you see were collected from patent US20240423973A1.
